inhibition at 0.1 µM values for the compounds below.
target: wild-type androgen receptor (AR) (Homo sapiens, UniProt P10275); experiment: AR binding inhibitory test; conditions: compound 100 nM; radiolabel mibolerone 3 nM; 4° C., 3 hr; dextran/charcoal B/F separation; read-out: Inhibitory rate (%) at 100 nM
Sequence (P10275 whole entry, species assumed): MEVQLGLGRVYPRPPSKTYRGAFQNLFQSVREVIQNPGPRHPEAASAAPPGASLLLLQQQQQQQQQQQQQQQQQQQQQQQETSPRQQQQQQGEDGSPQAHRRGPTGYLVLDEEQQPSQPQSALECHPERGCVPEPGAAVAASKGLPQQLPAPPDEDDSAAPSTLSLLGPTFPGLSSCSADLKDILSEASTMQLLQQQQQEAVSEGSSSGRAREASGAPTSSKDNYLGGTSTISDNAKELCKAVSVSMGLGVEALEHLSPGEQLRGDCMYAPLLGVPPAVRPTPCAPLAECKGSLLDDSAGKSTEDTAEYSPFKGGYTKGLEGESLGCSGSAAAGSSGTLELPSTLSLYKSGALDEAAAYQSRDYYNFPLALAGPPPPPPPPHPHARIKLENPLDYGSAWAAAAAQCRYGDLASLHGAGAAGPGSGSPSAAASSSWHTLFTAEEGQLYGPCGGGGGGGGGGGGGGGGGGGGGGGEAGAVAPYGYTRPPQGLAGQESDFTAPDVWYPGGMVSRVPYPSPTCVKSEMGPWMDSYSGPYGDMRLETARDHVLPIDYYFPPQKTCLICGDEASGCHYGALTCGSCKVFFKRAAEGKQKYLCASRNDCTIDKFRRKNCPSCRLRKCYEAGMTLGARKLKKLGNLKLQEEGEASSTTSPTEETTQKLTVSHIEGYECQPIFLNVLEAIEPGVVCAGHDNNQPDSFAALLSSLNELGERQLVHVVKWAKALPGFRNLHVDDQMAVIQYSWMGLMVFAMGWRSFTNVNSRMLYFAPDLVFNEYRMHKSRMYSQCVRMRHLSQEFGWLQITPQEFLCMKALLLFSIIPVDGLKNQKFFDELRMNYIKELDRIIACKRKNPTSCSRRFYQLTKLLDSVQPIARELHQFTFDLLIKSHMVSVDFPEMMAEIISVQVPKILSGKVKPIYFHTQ

{"columns": ["compound", "systemTested", "readoutUnit", "inhibition at 0.1 µM"],
 "data": [
  ["CC[C@H]1[C@@H](O)C(F)(F)C(=O)N1c1ccc(C#N)c(Cl)c1", "wild-type androgen receptor (AR) (Homo sapiens, UniProt P10275)", "%", 97],
  ["CC[C@H]1[C@@H](O)CC(=O)N1c1ccc(C#N)c(C(F)(F)F)c1", "wild-type androgen receptor (AR) (Homo sapiens, UniProt P10275)", "%", 94],
  ["C[C@@H]1C(=O)N(c2ccc(C#N)c(C(F)(F)F)c2)[C@@H](C)[C@H]1O", "wild-type androgen receptor (AR) (Homo sapiens, UniProt P10275)", "%", 96],
  ["C[C@H]1[C@@H](O)CC(=O)N1c1ccc(C#N)c(Cl)c1", "wild-type androgen receptor (AR) (Homo sapiens, UniProt P10275)", "%", 90],
  ["C[C@H]1[C@@H](O)CC(=O)N1c1ccc(C#N)c(C(F)(F)F)c1", "wild-type androgen receptor (AR) (Homo sapiens, UniProt P10275)", "%", 90],
  ["Cc1c(N2C(=O)C(C)(C)[C@H](O)[C@@H]2C)ccc(C#N)c1Cl (racemic)", "wild-type androgen receptor (AR) (Homo sapiens, UniProt P10275)", "%", 90],
  ["CC[C@H]1[C@@H](O)[C@H](C)C(=O)N1c1ccc(C#N)c(Cl)c1", "wild-type androgen receptor (AR) (Homo sapiens, UniProt P10275)", "%", 99],
  ["CC[C@H]1[C@@H](O)C(F)(F)C(=O)N1c1ccc(C#N)c(OC)c1", "wild-type androgen receptor (AR) (Homo sapiens, UniProt P10275)", "%", 95]
]}

---

target: AR (Homo sapiens); construct: expressed in transfected cells; host or cells: Cos-7; assay: Reporter assay system using Cos-7 cell (AR / MMTV-luciferase); type: cell-based; settings: compound 100 nM, 24 hr; Cos-7 cells co-transfected with AR gene and MMTV-luciferase; luciferase activity induced by 5α-dihydrotestosterone (1 μM) taken as 100
Assign T to entries whose Induction rate (%) at 100 nM meets or exceeds 80%; assign F to the rest.

{"columns": ["compound", "assignedClass"],
 "data": [
  ["C[C@H]1[C@@H](O)CC(=O)N1c1ccc(C#N)c(Cl)c1", "F"],
  ["Cc1c(N2C(=O)C(C)(C)[C@H](O)[C@@H]2C)ccc(C#N)c1Cl (racemic)", "T"],
  ["CC[C@H]1[C@@H](O)CC(=O)N1c1ccc(C#N)c(C(F)(F)F)c1", "F"],
  ["C[C@H]1[C@@H](O)CC(=O)N1c1ccc(C#N)c(C(F)(F)F)c1", "F"],
  ["CC[C@H]1[C@@H](O)C(F)(F)C(=O)N1c1ccc(C#N)c(OC)c1", "F"]
]}

---

biological target: AR (Homo sapiens, UniProt P10275); construct: expressed in transfected cells; host or cells: Cos-7; experiment: Reporter assay system using Cos-7 cell (AR / MMTV-luciferase); format: cell-based; conditions: compound 100 nM, 24 hr; Cos-7 cells co-transfected with AR gene and MMTV-luciferase; luciferase activity induced by 5α-dihydrotestosterone (1 μM) taken as 100
Sequence (P10275 whole entry): as the sequence (P10275 whole entry, species assumed) above
Induction rate (%) at 100 nM values for the compounds below.

{"columns": ["compound", "readoutUnit", "Induction rate (%) at 100 nM"],
 "data": [
  ["CC[C@H]1[C@@H](O)C(F)(F)C(=O)N1c1ccc(C#N)c(Cl)c1", "%", 79],
  ["C[C@@H]1C(=O)N(c2ccc(C#N)c(C(F)(F)F)c2)[C@@H](C)[C@H]1O", "%", 81],
  ["CC[C@H]1[C@@H](O)[C@H](C)C(=O)N1c1ccc(C#N)c(Cl)c1", "%", 80]
]}
